In this section, each of the compounds is paired with its reported IC50.
Target: FAAH (Rattus norvegicus, UniProt P97612)
Sequence (P97612 whole entry): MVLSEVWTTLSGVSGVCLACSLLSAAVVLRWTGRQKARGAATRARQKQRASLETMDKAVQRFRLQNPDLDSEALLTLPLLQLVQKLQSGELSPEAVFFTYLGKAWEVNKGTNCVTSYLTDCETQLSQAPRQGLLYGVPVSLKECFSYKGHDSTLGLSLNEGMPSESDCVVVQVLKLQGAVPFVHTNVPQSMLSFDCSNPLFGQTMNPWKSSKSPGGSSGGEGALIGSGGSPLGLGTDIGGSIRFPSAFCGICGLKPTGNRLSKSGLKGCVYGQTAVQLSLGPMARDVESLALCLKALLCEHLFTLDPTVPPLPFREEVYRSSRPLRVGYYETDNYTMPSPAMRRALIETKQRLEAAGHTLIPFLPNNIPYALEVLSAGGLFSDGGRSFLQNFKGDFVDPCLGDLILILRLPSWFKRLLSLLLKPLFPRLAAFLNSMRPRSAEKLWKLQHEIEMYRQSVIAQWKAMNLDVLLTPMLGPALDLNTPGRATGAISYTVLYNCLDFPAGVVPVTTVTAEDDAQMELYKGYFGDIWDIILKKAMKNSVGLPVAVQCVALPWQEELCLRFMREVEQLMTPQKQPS
Assay: biochemical
Assay type: biochemical
Parameters: from tissue; host or cells: rat brain (membrane fraction of homogenate; Wistar rats)
Conditions: rat brain membranes; read-out: IC50
MEASURED PARAMETER: IC50 (nM)

1. CCCCNC(=O)Oc1ccc(OCc2ccccc2)cc1 :: 396
2. O=C(NC1CCCCC1)Oc1ccc2ccccc2c1 [PL#11, 2-naphthyl N-cyclohexylcarbamate] :: 324
3. O=C(NC1CCCCC1)Oc1cccc(-c2ccccc2)c1 :: 63

###

Biological target: electric eel acetylcholinesterase (Electrophorus electricus, UniProt O42275)
Sequence (O42275 whole entry): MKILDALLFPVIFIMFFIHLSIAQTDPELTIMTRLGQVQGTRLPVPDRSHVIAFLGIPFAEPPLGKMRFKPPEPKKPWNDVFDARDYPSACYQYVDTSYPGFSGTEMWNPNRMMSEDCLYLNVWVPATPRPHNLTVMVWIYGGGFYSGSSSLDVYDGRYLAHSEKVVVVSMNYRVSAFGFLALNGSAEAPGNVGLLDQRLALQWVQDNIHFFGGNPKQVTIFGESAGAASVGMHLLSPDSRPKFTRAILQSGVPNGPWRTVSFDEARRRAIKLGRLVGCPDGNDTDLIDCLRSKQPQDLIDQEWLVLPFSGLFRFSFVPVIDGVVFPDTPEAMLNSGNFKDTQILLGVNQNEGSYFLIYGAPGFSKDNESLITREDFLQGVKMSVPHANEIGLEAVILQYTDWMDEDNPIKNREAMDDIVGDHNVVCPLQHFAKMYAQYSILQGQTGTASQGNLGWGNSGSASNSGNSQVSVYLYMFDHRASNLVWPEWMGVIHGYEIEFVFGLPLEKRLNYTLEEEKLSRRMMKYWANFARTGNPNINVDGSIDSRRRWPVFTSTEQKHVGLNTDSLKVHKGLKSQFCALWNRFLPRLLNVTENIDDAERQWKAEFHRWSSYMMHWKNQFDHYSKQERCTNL
Conditions: read-out: Cholinesterase IC50; Table 3; acetylcholinesterase
MEASURED PARAMETER: IC50 (µM)

1) CNC(=O)Oc1cccc2ccccc12 [PL#18, carbaryl, reference compound] :: 3.1

###

Target: FAAH (Rattus norvegicus)
Assay: biochemical
Format: biochemical
Parameters: from tissue; host or cells: rat brain (membrane fraction of homogenate; Wistar rats)
Conditions: Table 4; FAAH IC50; read-out: Inhibition of Amidohydrolase IC50
pIC50: −log10 of the molar value.
MEASURED PARAMETER: pIC50

1. Cc1ccc(OC(=O)NC2CCCCC2)cc1-c1ccccc1 :: 6.70
2. O=C(NC1CCCCC1)Oc1ccc2ccccc2c1 [PL#11, 2-naphthyl N-cyclohexylcarbamate] :: 6.48
3. Cc1cccc(NC(=O)OC2CCCCC2)c1 :: 6.10
4. CCCCNC(=O)Oc1ccc2cc(Br)ccc2c1 [PL#3, 6-bromo-2-naphtyhyl N-butylcarbamate] :: 6.12
5. O=C(NC1CCCCC1)Oc1cccc(-c2cccc(Oc3ccccc3)c2)c1 :: 5.59
6. O=C(NC1CCCCC1)Oc1ccc2cccc(Br)c2c1 :: 6.77

###

# log10 of IC50 values compiled below
Molecular target: FAAH (Rattus norvegicus)
Test: biochemical
Format: biochemical
Parameters: from tissue; host or cells: rat brain (membrane fraction of homogenate; Wistar rats)
Settings: Inhibition of Amidohydrolase IC50(μM)
MEASURED PARAMETER: log10 of IC50 (log10 of the value in µM)

1. Nc1ccc(-c2cccc(OC(=O)NC3CCCCC3)c2)cc1 :: -0.29
2. O=C(NC1CCCCC1)Oc1cccc(-c2cccc(C(F)(F)F)c2)c1 :: -0.89
3. O=C(NC1CCCCC1)Oc1ccc(/C=C\c2ccccc2)cc1 :: -0.62
4. O=C(NC1CCCCC1)Sc1ccc2ccccc2c1 :: 1.18
5. Nc1cccc(-c2cccc(OC(=O)NC3CCCCC3)c2)c1 :: -1.22
6. O=C(NC1CCCCC1)Oc1cccc(-c2ccc(C(F)(F)F)cc2)c1 :: 0.20
7. CCCc1cccc(-c2cccc(OC(=O)NC3CCCCC3)c2)c1 :: -1.10
8. CCc1ccc2cc(OC(=O)NC3CCCCC3)ccc2c1 :: 0.48

###

Molecular target: FAAH (Rattus norvegicus, UniProt P97612)
Assay: biochemical
Type: biochemical
Parameters: from tissue; host or cells: rat brain (membrane fraction of homogenate; Wistar rats)
Details: Table 6; meta-substituted derivatives; read-out: pIC50 obsd (converted)
Form field: IC50 (one value per entry).
MEASURED PARAMETER: IC50 (nM)

1) CC(=O)c1cccc(-c2cccc(OC(=O)NC3CCCCC3)c2)c1 :: 9.12
2) NS(=O)(=O)c1cccc(-c2cccc(OC(=O)NC3CCCCC3)c2)c1 :: 26.3
3) O=C(NC1CCCCC1)Oc1cccc(-c2cccc(Oc3ccccc3)c2)c1 :: 417

###

Target: electric eel acetylcholinesterase (Electrophorus electricus)
Assay: biochemical
MEASURED PARAMETER: IC50

1. CC(C)(C)NC(=O)Oc1ccc(-c2ccccc2)cc1Cl :: > 30 µM
2. CCCCNC(=O)Oc1ccc2cc(Br)ccc2c1 [PL#3, 6-bromo-2-naphtyhyl N-butylcarbamate] :: > 30 µM
3. O=C(Oc1ccccc1)N1CCCCC1 [PL#1, 1-phenyl-N-piperidinecarboxylate] :: > 30 µM
4. O=C(Nc1ccc(F)cc1)Oc1ccc(OCc2ccccc2)cc1 :: > 30 µM
5. O=C(NC1CCCCC1)Oc1ccc(-c2ccccc2)cc1 [PL#5, 4-biphenyl N-cyclohexylcarbamate] :: > 30 µM
6. CCCCOC(=O)Oc1ccc(C(=O)Oc2ccc(OC)cc2)cc1 :: > 30 µM
7. CNC(=O)Oc1ccc2ccccc2c1 [PL#4, 2-naphtyl-N-methylcarbamate] :: > 30 µM
8. CCCCNC(=O)Oc1ccc(OCc2ccccc2)cc1 :: > 30 µM
9. Cc1ccc(OC(=O)NC2CCCCC2)cc1 [PL#6, p-toly-N-cyclohexy carbamate] :: > 30 µM
10. O=C(NC1CCCCC1)Oc1ccc2ccccc2c1 [PL#11, 2-naphthyl N-cyclohexylcarbamate] :: > 30 µM

###

Target: FAAH (Rattus norvegicus)
Test: biochemical
Format: biochemical
Set-up: from tissue; host or cells: rat brain (membrane fraction of homogenate; Wistar rats)
Settings: Table 3; read-out: Amidohydrolase IC50
pIC50: −log10 of the molar value.
MEASURED PARAMETER: pIC50

1) CCCCNC(=O)Oc1ccc(OCc2ccccc2)cc1 :: 6.40
2) CNC(=O)Oc1ccc2ccccc2c1 [PL#4, 2-naphtyl-N-methylcarbamate] :: 4.73
3) Cc1ccc(OC(=O)NC2CCCCC2)cc1 [PL#6, p-toly-N-cyclohexy carbamate] :: 5.27
4) O=C(NC1CCCCC1)Oc1ccc2ccccc2c1 [PL#11, 2-naphthyl N-cyclohexylcarbamate] :: 6.48

###

Catalogue of compounds with associated pIC50
Biological target: FAAH (Rattus norvegicus)
Experiment: biochemical
Type: biochemical
Design: from tissue; host or cells: rat brain (membrane fraction of homogenate; Wistar rats)
Details: Table 4; FAAH IC50; read-out: Inhibition of Amidohydrolase IC50
pIC50: −log10 of the molar value.
MEASURED PARAMETER: pIC50

1) O=C(Nc1ccccc1)OC1CCCCC1 :: 5.51
2) O=C(NC(=O)c1ccc(OC(=O)NC2CCCCC2)cc1-c1ccccc1)NC1CCCCC1 :: 5.51
3) O=C(NC1CCCCC1)Oc1cccc(-c2ccc(F)cc2)c1 :: 7.05

###

Target: FAAH (Rattus norvegicus)
Assay: biochemical
Assay type: biochemical
Design: from tissue; host or cells: rat brain (membrane fraction of homogenate; Wistar rats)
Details: read-out: Inhibition of Amidohydrolase IC50
pIC50: −log10 of the molar value.
MEASURED PARAMETER: pIC50

1) O=C(NC1CCCCC1)Oc1ccc(/C=C/c2ccccc2)cc1 :: 5.48
2) O=C(NC1CCCCC1)Oc1ccc(-c2ccccc2)cc1 [PL#5, 4-biphenyl N-cyclohexylcarbamate] :: 5.64

###

Biological target: FAAH (Rattus norvegicus)
Experiment: biochemical
Assay type: biochemical
Parameters: from tissue; host or cells: rat brain (membrane fraction of homogenate; Wistar rats)
Details: Table 3; read-out: Amidohydrolase IC50
Structures can show the parent of a compound that is named as a salt.
Each entry below lists one item and its recorded IC50 value.
MEASURED PARAMETER: IC50

1. CCCCOC(=O)Oc1ccc(C(=O)Oc2ccc(OC)cc2)cc1 :: 9.1 µM
2. CNC(=O)Oc1ccc2c(c1)[C@@]1(C)CCN(C)[C@H]1N2C [PL#16, (−)-Physostigmine sulfate, reference compound] :: > 30 µM
3. O=C(Nc1ccc(F)cc1)Oc1ccc(OCc2ccccc2)cc1 :: > 30 µM
4. CCCCNC(=O)Oc1ccc2cc(Br)ccc2c1 [PL#3, 6-bromo-2-naphtyhyl N-butylcarbamate] :: 0.76 µM

###

Molecular target: FAAH (Rattus norvegicus, UniProt P97612)
Assay: biochemical
Type: biochemical
Set-up: from tissue; host or cells: rat brain (membrane fraction of homogenate; Wistar rats)
Conditions: Table 4; FAAH IC50; read-out: Inhibition of Amidohydrolase IC50
pIC50: −log10 of the molar value.
Recorded pIC50 values for a group of compounds are listed next.
MEASURED PARAMETER: pIC50

1) O=C(NC1CCCCC1)Oc1cccc(-c2cccc(-c3ccccc3)c2)c1 [#34] :: 6.25
2) CNC(=O)Oc1ccc2ccccc2c1 [PL#4, 2-naphtyl-N-methylcarbamate] :: 4.73
3) Cc1cccc(-c2cccc(OC(=O)NC3CCCCC3)c2)c1 [PL#43] :: 7.00
4) CCCCCc1cccc(OC(=O)NC2CCCCC2)c1 [#33] :: 6.66
5) O=C(NC1CCCCC1)Oc1ccc2ccn(-c3ccccc3)c2c1 [#36] :: 5.85
6) O=C(NC1CCCCC1)Oc1cccc(-c2cccc(F)c2)c1 [PL#47] :: 7.04
7) Nc1ccc(OC(=O)NC2CCCCC2)cc1-c1ccccc1 [PL#59] :: 7.30
8) NC(=O)c1ccc(OC(=O)NC2CCCCC2)cc1-c1ccccc1 [PL#49] :: 6.70
9) CCCCNC(=O)Oc1ccc(OCc2ccccc2)cc1 [UCM532] :: 6.52
10) O=C(NC1CCCCC1)Oc1cccc(-c2ccccc2)c1 [URB524] :: 7.22
11) CCCCOC(=O)Oc1ccc(C(=O)Oc2ccc(OC)cc2)cc1 [PL#17] :: 5.04
12) Cc1ccc(-c2cccc(OC(=O)NC3CCCCC3)c2)cc1 [PL#37] :: 6.64
13) Cc1ccc(OC(=O)NC2CCCCC2)cc1 [PL#6, p-toly-N-cyclohexy carbamate] :: 5.27
